# System: A498 renal
# experiment-description: NCI-60 one-dose screen, 48 h
# condition: 10 µM unless noted
# Protocol: Growth inhibition of the A498 human tumor cell line is measured as a screen for anti-cancer activity. Cells are grown in 96 well plates and exposed to the test compound for 48 hours. Compounds are tested at a single concentration, which is 10^-5 M for most compounds. The reported endpoint is percent growth (GI% or GIPRCNT), where numbers from 0 - 100% represent growth inhibition, and numbers from -100% - 0 represent cell death. For example, a value of 40 represents 60% growth inhibition. […]
About 83,000 compounds went through this panel and 20% of them were active in at least one assay; those are over-represented in the sample as a whole. Calls of active or inactive are those of the source. How the source made its calls: active means growth percent below 10; inactive means the rest.
Could you please pick one outcome from this set? active, inactive

| chemical-structure | assigned-label |
| --- | --- |
| O=C(CCC(=O)N/N=C/c1ccccc1O)N/N=C/c1ccccc1O | inactive |
| O=C(Nc1ccc(-c2nc(N3CCOCC3)c3cccn3n2)cc1)Nc1cccnc1 | active |
| O=[N+]([O-])c1ccc(-c2nc(N3CCOCC3)c3c4c(sc3n2)CCCC4)cc1 | inactive |

Prompt: Please share the test call associated with `CN([O-])c1nc(N(C)[O-])nc(N2CCOCC2)n1.CN([O-])c1nc(N(C)[OH2+])nc(N2CCOCC2)n1.[Fe+3]` .
Response: inactive

----------
growth values by entry
# Test system: HT29 colon
# experiment-description: NCI-60 one-dose screen, 48 h (100 = growth as untreated, 0 = no growth, -100 = all killed)
# condition: 10 µM unless noted
This is part of a sample that, as a whole, favours compounds with a hit. Of some 83,000 tested, about 20% had one in any assay. The source made the active and inactive calls. The calls were made as follows: active = growth percent below 10; inactive = the rest.

Past entries and their recorded results:
| compound | measured-parameter | test-value |
| --- | --- | --- |
| CCOC(=O)c1cnc2ccccc2c1Cl | growth | 101% (inactive) |
| Cc1ccc(-c2nc(N3CCNCC3)c3oc(-c4ccccc4)nc3n2)cc1 | growth | -93.8% (active) |
| CS(=O)(=O)C1=CN(CCO)C(=O)N2CCCN=C12 | growth | 107% (inactive) |

// sample `CN(CCn1sc(=O)n(Cc2ccccc2)c1=O)Cc1ccc2c(Cl)cc(Cl)c(O)c2n1` , its growth was 39.9% (inactive)

The recorded growth for entry `Fc1ccc2[nH]cc(-c3nonc3-c3c[nH]c4ccc(Br)cc34)c2c1` equals -51.8% (active)

Looking up `CC(C)(C)n1cc(-c2ccnc(NCCCNS(=O)(=O)c3ccc(F)cc3)c2)c(-c2cccc(F)c2)n1` , I see its growth listed as 6.93% (active)

Reported growth of `CC(C)(C)[Si](C)(C)O[C@H]1C(=O)C=CN2CC=C[C@@H]12` : 106% [100 µM] (inactive)

growth reported for this compound `COCCNC(=O)c1ccc(-c2nc3ccc4[nH]ncc4c3c3c2CCCC3)cc1` : 44.5% (inactive)

Entry CCn1cc(C(=O)N/N=C/c2cccs2)c(=O)c2cc(F)c(N3CCNC(C)C3)c(F)c21 (configuration not stated) ; growth = -76.7% (active)

`COC(=O)c1ccc2c(c1)C(=O)c1c-2n(CCCN)c(=O)c2cc([N+](=O)[O-])ccc12` yielded growth of -100% (active)

The compound listed as `COc1cc(-n2cc(-c3cc(O)c(C/C=C(\C)CCC=C(C)C)c(O)c3)nn2)cc2c1O[C@]1(C)CC[C@@H](O)C(C)(C)[C@H]1C2` has a reported growth of -34.6% (active)

The compound identified as `N#Cc1cnc(NCCc2ccncc2)nc1-n1cnc2ccccc21` registered its growth at 49% (inactive)

----------
# System: NCI-H226 lung
# experiment-description: NCI-60 one-dose screen, 48 h (100 = growth as untreated, 0 = no growth, -100 = all killed)
# condition: 10 µM unless noted
This is part of a sample that, as a whole, favours compounds with a hit. Of some 83,000 tested, about 20% had one in any assay.
Respond with Yes for growth values of 90% and above, No for values below.

| chemical-structure | assigned-label |
| --- | --- |
| O=C(Nc1cc(Cl)ccc1O)c1ccc(Nc2ccnc(C(F)(F)F)c2)cc1 | No |

Prompt: Evaluate `COc1cc(/C=C/C(=O)c2cccc(Nc3nc(Nc4ccccc4)nc(Nc4ccccc4)n3)c2)cc(OC)c1OC` : growth at minimum 90%?
Response: No

Prompt: Hi team, for `O=C(/C=C/c1ccc(Cl)cc1)c1cccc(Nc2nc(Nc3ccccc3)nc(Nc3ccccc3)n2)c1` , is the recorded growth at or above 90%?
Response: Yes

----------
# System: SK-MEL-5 melanoma
# experiment-description: NCI-60 one-dose screen, 48 h (100 = growth as untreated, 0 = no growth, -100 = all killed)
# condition: 10 µM unless noted
Compounds without any hit were thinned out: in the full panel of roughly 83,000, 20% have a hit.
Could you label it 1 (yes) if measured growth is 20% or higher, and 0 (no) otherwise?

| molecule | assigned-label |
| --- | --- |
| C#Cc1cccc(Nc2ncnc3ccc(-c4cncc(NS(C)(=O)=O)c4)cc23)c1 | 0 (no) |
| CCC(=C(c1ccc(OCCN2CCCC2)cc1)c1ccc(OCCN2CCCC2)cc1)c1ccc(Cl)cc1 | 0 (no) |
| Cc1nc2c(=O)[nH]c(SCC(=O)Nc3cccc(F)c3)nc2[nH]c1=O | 1 (yes) |
| Cn1c(=O)c2c(nc(NC3=NS(=O)(=O)c4ccccc43)n2CC(=O)N2CCc3ccccc32)n(C)c1=O | 1 (yes) |
| Cc1ccc(S(=O)(=O)N2CCCC2CO)cc1 (configuration not stated) | 1 (yes) |

Prompt: Kindly determine if growth recorded for `COc1ccc(C(=O)Nc2ncc(Cc3cccc(Cl)c3)s2)cc1OC` is above or exactly 20%.
Response: 0 (no)

Prompt: Does the molecule N#CC1=C(N)Oc2c(sc3c(Br)cccc23)C1c1ccc(F)cc1 (configuration not stated) have recorded growth that is 20% or more?
Response: 1 (yes)

----------
Listing of recorded growth by entry.
# System: BT-549 breast
# experiment-description: NCI-60 one-dose screen, 48 h (100 = growth as untreated, 0 = no growth, -100 = all killed)
# condition: 10 µM unless noted
Compounds without any hit were thinned out: in the full panel of roughly 83,000, 20% have a hit. The source made the active and inactive calls. Rule for the calls: active = growth percent below 10; inactive = the rest.

These solved cases illustrate the format of a correct answer.
| compound | measured-parameter | test-value |
| --- | --- | --- |
| CC(=O)OCc1nc(C#N)c(N(C)C)o1 | growth | 91.2% (inactive) |
| Cc1ccc(C2=Nc3c(N)ncnc3NC(c3ccc4c(c3)OCO4)C2)cc1 (configuration not stated) | growth | 61.4% (inactive) |
| Fc1ccc(-c2nn(-c3ccccc3)cc2-c2nc3ccccc3o2)cc1 | growth | 66.4% (inactive) |
| O=C1c2cccc(NCCN=Cc3cc(O)ccc3O)c2C(=O)c2c(NCCN=Cc3cc(O)ccc3O)cccc21 | growth | 41.7% (inactive) |
| CC(C)n1cnc2c(=S)nc[nH]c21 | growth | 112% (inactive) |

According to the records, this compound `O=C(c1ccc(Cl)cc1)N1CCN(c2ccnc3cc(Cl)ccc23)CC1` displays growth of 106% (inactive)

So, `O=CC1(C2(C=O)c3ccccc3-c3ccccc32)c2ccccc2-c2ccccc21` ? Its growth was -74.3% (active)

Noted for `Oc1c(Cl)cc(Cl)c2ccc(Cn3cc(-c4cc(F)cc(F)c4)nn3)nc12` : its growth reads 70.9% (inactive)

----------
The following molecules are shown together with reported growth values.
# Tested on: SF-539 CNS
# experiment-description: NCI-60 one-dose screen, 48 h (100 = growth as untreated, 0 = no growth, -100 = all killed)
# condition: 10 µM unless noted
Compounds without any hit were thinned out: in the full panel of roughly 83,000, 20% have a hit.
Reply numerically in %, unit not repeated.

| molecule | unit-info | growth |
| --- | --- | --- |
| O=C1Nc2ccccc2[C@]12CC(c1ccccc1)=NN2 | % | 28.4 |

The molecule `O=C(CN1C(=O)CCC1=O)Nc1ncc(Cc2ccc(F)cc2)s1` showed growth equal to 98.7

Lab book: growth of Nc1ncnc2c1N=C(c1ccc3c(c1)OCO3)CC(c1ccc([N+](=O)[O-])cc1)N2 (stereo unspecified) noted as 86.8

----------
# Test system: UO-31 renal
# experiment-description: NCI-60 one-dose screen, 48 h (100 = growth as untreated, 0 = no growth, -100 = all killed)
# condition: 10 µM unless noted
# Protocol: Growth inhibition of the UO-31 human tumor cell line is measured as a screen for anti-cancer activity. Cells are grown in 96 well plates and exposed to the test compound for 48 hours. Compounds are tested at a single concentration, which is 10^-5 M for most compounds. The reported endpoint is percent growth (GI% or GIPRCNT), where numbers from 0 - 100% represent growth inhibition, and numbers from -100% - 0 represent cell death. For example, a value of 40 represents 60% growth inhibition. […]
About 83,000 compounds went through this panel and 20% of them were active in at least one assay; those are over-represented in the sample as a whole.
Entries and their growth values follow.
# value in %; strip the unit string

Reference set, count: 2
| compound | target | measured-parameter | test-value |
| --- | --- | --- | --- |
| Cn1c(-c2ccc(Br)cc2)c(O)c(=O)c2c(F)cccc21 | UO-31 renal | growth | 26.3 |
| O=C1c2cccnc2C(=O)c2c1c(C(=O)NCCn1ccnc1)c1ccccn21 | UO-31 renal | growth | 61.3 |

According to the records, this compound O=C1N(Cc2ccccc2Cl)c2ccccc2C12NN=C(c1cccc(Cl)c1)S2 (centres undefined) displays growth of -58.3

// field: growth; key: `COc1cc2c(c(OC)c1OC)-c1ccc(OC)c(=O)cc1[C@@H](NC(=O)CCl)CC2` ; value = 32.8
